Give Papp for every item shown.
Assay: Permeability at pH 7.4 by PAMPA method
Format: ADME
Conditions: read-out: permeability
Give bare numbers, in ×10⁻⁶ cm/s.

The cases that follow already have their Papp on record.
Molecule	Papp [×10⁻⁶ cm/s]
CN1CCC(C)(C2CC(=O)N(CCOc3ccc(F)c(C#N)c3)C2)CC1 (racemic)	21
CC1([C@@H]2CC(=O)N(CCOc3ccc(F)c(C#N)c3)C2)CCS(=O)(=O)CC1	3.6

Prompt: Output Papp of `CC1([C@@H]2CC(=O)N(CCOc3ccc(F)c(F)c3)C2)CCS(=O)(=O)CC1`
Completion: 17

====

Experiment: Solubility in pH 7.4 PBS by CLND assay
Measure: solubility kinetic (µM)
Give bare numbers, in µM.

Molecule	Units Text	Readout Value
CC1(C2CC(=O)N(CCOc3ccc(F)c(C#N)c3)C2)CCNCC1.Cl (racemic; form 2)	µM	242

Shift focus to the following entry.
Prompt: Output solubility kinetic of `CCN(CC)CCN(Cc1ccc(-c2ccc(C(F)(F)F)cc2)cc1)C(=O)Cn1c(SCc2ccc(F)cc2)nc(=O)c2c1CCC2`
Completion: 8
